Target: Cytochrome P450 1A2 (Homo sapiens)
Assay: Cytochrome P450 Family 1 Subfamily A Member 2 (CYP1A2) small molecule antagonists: luciferase reporter qHTS assay (AID 1671199); note: nearly all actives have a fitted effect of over 50% in size
Conditions: P450-Glo CYP1A2 enzyme, luciferin luminescence, 1 h; series mostly up to 53 µM
Source text: National Center for Advancing Translational Sciences [NCATS] U.S. Environmental Protection Agency [EPA] National Institutes of Environmental Health Sciences [NIEHS] National Toxicology Program [NTP] U.S. Food and Drug Administration [FDA] Cytochrome P450 (CYP) enzymes are membrane-bound hemeproteins that play a key role in metabolism of drugs and xenobiotics. […] The luciferin products formed are detected with a luciferin detection reagent, and the amount of light produced is proportional to CYP activity. […]
Inconclusive results are not listed. Activity calls are given as the source filed them. Calls come from the whole dose curve; as a rule, active = well fitted inhibition curve with a large enough effect in the repeat runs; inconclusive = weak or mixed curves; inactive = no such curve, though single readings can be large or run the other way.
One label from this list, please: active, inactive

// outcome(item) with item = CCCN(CCC)C(=O)C(CCC(=O)O)NC(=O)c1ccccc1 (stereo not given) inactive

Request: CCCOCCC inactive

Now this one: CC(C)S inactive

Entry to check: COc1cc(C)ccc1C(C)C inactive

Also CCCCCCn1c(=O)c2c(ncn2C)n(C)c1=O , if possible. active

Ok, now CCCCC(CC)COC(=O)COc1cc(Cl)c(Cl)cc1Cl (stereo not given) active

Thanks! And CC(C)OC(C)C ? inactive

And OCCN(CCO)CCN(CCO)CCO ? inactive

Okay, and Oc1ccccc1C=NCc1ccccc1 ? inactive

What about Cc1ccc([N+](=O)[O-])cc1Cl ? inactive

# iterate: O=C1Nc2ccc([N+](=O)[O-])cc2C1=O active

CCOc1ccc(OCC)c(Cl)c1 , same question. active

Next record, please: Nc1ccc(Oc2ccc(N)c(N)c2)cc1 active

Follow-up item: CC(C)(C)c1ccc(OC(=O)c2ccccc2O)cc1 active

Now consider CN1CCN(c2c(F)cc3c(=O)c(C(=O)O)cn(CCF)c3c2F)CC1 and answer again. inactive

---

assay: qHTS assay for small molecule disruptors of the mitochondrial membrane potential (AID 720635); conditions: HepG2 mitochondrial membrane potential, Mito-MPS dye ratio; series mostly up to 83.2 µM; note: potency is the fitted concentration of half-maximal effect
Inconclusive results are not listed. Activity calls are given as the source filed them. Calls come from the whole dose curve; as a rule, active = well fitted inhibition curve with a large enough effect in the signal ratio in the repeat runs; inconclusive = weak or mixed curves, or effect the other way; inactive = flat fitted curve, though single readings scatter; the % refers to the signal ratio.
Parameter measured: Potency

Check out these entries, answers already filled in.
- Molecule: "O=C(O)CN(CCN(CC(=O)O)CC(=O)O)CCN(CC(=O)O)CC(=O)O"
  Potency: "inactive"
- Molecule: "CCCCCCCCCC/C=C/C#N"
  Potency: "inactive"
- Molecule: "Cc1c(-c2ccccc2)oc2c(C(=O)OCCN3CCCCC3)cccc2c1=O"
  Potency: "inactive"
- Molecule: "CCCCc1ccc2nc(NC(=O)OC)[nH]c2c1"
  Potency: "0.254 µM (active)"
- Molecule: "C[C@@H]1CN(c2c(F)c(F)c3c(=O)c(C(=O)O)cn(C4CC4)c3c2F)C[C@H](C)N1"
  Potency: "inactive"

Given CCOC(=O)c1ccccc1O , state its recorded Potency. inactive

Let us now turn to CC1(C)O[C@@H]2C[C@H]3[C@@H]4CCC5=CC(=O)CC[C@]5(C)[C@@]4(F)[C@@H](O)C[C@]3(C)[C@]2(C(=O)CCl)O1 8.04 µM (active)

What would you report for CN1CCN(c2c(F)cc3c(=O)c(C(=O)O)cn(CCF)c3c2F)CC1 ? inactive

Another molecule: CC[C@H]1CC[C@H](NCc2cc3c(cc2OC)[C@H]2C[C@H]2C(=O)N3C)[C@H](c2ccccc2)N1 inactive

Subsequent entry: CN1[C@@H]2CC[C@H]1CC(OC(=O)c1c[nH]c3ccccc13)C2 (stereo partly drawn) inactive

Likewise for C1CSCCS1 ? inactive

Another: Cc1nnc(SCC2=C(C(=O)O)N3C(=O)[C@@H](NC(=O)Cn4cnnn4)[C@H]3SC2)s1 inactive

---

assay: qHTS assay to test for compound auto fluorescence at 460 nm (blue) in HepG2 cells (AID 720687); details: autofluorescence 405/460 nm, 1 h; series mostly up to 91.3 µM; note: % is set by controls: 0 for no effect and ±100 for the full control effect
Activity calls are given as the source filed them. Calls come from the whole dose curve; as a rule, active = well fitted curve in the direction sought with a large enough effect in the repeat runs; inconclusive = weak or mixed curves; inactive = flat fitted curve, though single readings scatter.
Parameter measured: fluorescence, % of fluorescent control

# count of solved cases: 5
- Molecule: "O=C1CCCCCCCCCCC(=O)OCCO1"
  Parameter measured: "fluorescence, % of fluorescent control"
  Data value: "inactive"
- Molecule: "NC(=O)Cc1cccc(C(=O)c2ccccc2)c1N"
  Parameter measured: "fluorescence, % of fluorescent control"
  Data value: "inactive"
- Molecule: "CN1[C@@H]2CC[C@H]1CC(OC(=O)c1c[nH]c3ccccc13)C2 (some centres not stated)"
  Parameter measured: "fluorescence, % of fluorescent control"
  Data value: "inactive"
- Molecule: "Cc1cccc(C)c1NC(=O)CN1CCCCCC1"
  Parameter measured: "fluorescence, % of fluorescent control"
  Data value: "inactive"
- Molecule: "NC(Cc1ccc(F)cc1)C(=O)O (configuration not stated)"
  Parameter measured: "fluorescence, % of fluorescent control"
  Data value: "-0.0921% [at 3.72 µM] (inactive)"

Which fluorescence, % of fluorescent control value belongs to COc1cc(N)c(Cl)cc1C(=O)NC1CCN(Cc2ccccc2)CC1 ? 0.034% [at 18.6 µM] (inactive)

Thanks! And CCCCCCCCCC#N ? inactive

---

biological target: Androgen receptor (Homo sapiens); assay: qHTS assay to identify small molecule antagonists of the androgen receptor (AR) signaling pathway (AID 743035); details: HEK293 AR-UAS-bla, R1881-stimulated, beta-lactamase FRET, 16 h; series mostly up to 58.5 µM
Records with an inconclusive call do not appear. Activity calls are given as the source filed them. The call rests on the fitted dose curve; in most records, active means well fitted inhibition curve with a large enough effect in the signal ratio in the repeat runs (not every such curve was filed as active); inconclusive means weak or mixed curves, or effect the other way; inactive means no such curve, though single readings can be large or run the other way; the % refers to the signal ratio.
Choose the fitting class; nothing outside y for active, n for inactive is accepted.

Assay result, entry Cc1ccsc1C(=CCCN1CCC[C@@H](C(=O)O)C1)c1sccc1C — outcome? n

Repeat for the following compound: Cc1nc(-c2ccccn2)ncc1C(=O)Nn1cc(C)c2cc(F)ccc21 y

Now consider N#Cc1ccc(C(c2ccc(C#N)cc2)n2cncn2)cc1 and answer again. n

Would you kindly repeat that for NCCCN1CCN(CCCN)CC1 ? n

Then what about the compound CC(C)(C)c1cccc(O)c1 ? n

Next entry: COC(=O)C(C)O (stereo unspecified) n

Try Cc1ncc(CO)c(CN)c1O next. n

Another compound to check: Nc1cccc(S(=O)(=O)O)c1 n

Again, but for CN(C)Cc1ccccc1 n

One more compound: Cc1c(C(=O)NCCO)[n+](=O)c2ccccc2n1[O-] n

Ok, now CC(C)CCCCCCc1ccc(OCCOCCO)cc1 n

Same thing, different compound: CN1CCN(C2=Nc3cc(F)ccc3Cc3ccccc32)CC1 n

Next: OCCN(CCO)c1ccccc1 n

And Cc1cc(S(=O)(=O)O)c(N)cc1Cl ? n

For COC(C)CCO (stereo unspecified) then? n

Same lookup for CC(=O)OC(C)OC(C)=O , please. n

---

assay: qHTS RealTime-Glo MT Cell Viability Assay in HepG2 cells - 40 hour (AID 1224870); conditions: RealTime-Glo luminescence; series mostly up to 76.8 µM; note: % is set by controls: 0 for no effect and ±100 for the full control effect; nearly all actives have a fitted effect of over 50% in size
Inconclusive results are not listed. Active and inactive are the calls of the source. Calls follow the shape of the dose curve; as a rule, active = well fitted cell-killing curve with a large enough effect in the repeat runs; inconclusive = weak or mixed curves, or effect the other way; inactive = flat fitted curve, though single readings scatter.
Parameter measured: activity change, negative = cytotoxic

Look over these answered cases.
- Compound: "CC(C)S"
  Data value: "inactive"
- Compound: "CC(C)OC(C)C"
  Data value: "inactive"
- Compound: "CC(C)(C)c1cccc(O)c1"
  Data value: "inactive"
- Compound: "NC1=NCC2c3ccccc3Cc3ccccc3N12 (stereo unspecified)"
  Data value: "inactive"

Given c1ccc(CN(CC2=NCCN2)c2ccccc2)cc1 , state its recorded activity change, negative = cytotoxic. inactive

Then what about the compound CC(=O)N(CC(O)CN(C(C)=O)c1c(I)c(C(=O)NCC(O)CO)c(I)c(C(=O)NCC(O)CO)c1I)c1c(I)c(C(=O)NCC(O)CO)c(I)c(C(=O)NCC(O)CO)c1I (stereo unspecified) ? inactive

Similarly, NCCCN1CCN(CCCN)CC1 ? inactive

Another compound to check: O=S(=O)(O)C(F)(F)F inactive

# iterate: FC(F)(F)C(F)(F)C(F)(F)C(F)(F)C(F)(F)C(F)(F)C(F)(F)C(F)(F)Br inactive

Next entry: CCCCCCCCCCCCOCCOS(=O)(=O)O inactive

Would you kindly repeat that for CCN(O)CC ? inactive

Note, next up: CCCCC1CCC(=O)O1 (stereo unspecified) inactive

Same read-out for CCCc1c2oc(C(=O)O)cc(=O)c2cc2c(=O)cc(C(=O)O)n(CC)c12 ? inactive

---

Target: Thyrotropin-releasing hormone receptor (Homo sapiens) (UniProt P34981)
Sequence (P34981 whole entry, looked up): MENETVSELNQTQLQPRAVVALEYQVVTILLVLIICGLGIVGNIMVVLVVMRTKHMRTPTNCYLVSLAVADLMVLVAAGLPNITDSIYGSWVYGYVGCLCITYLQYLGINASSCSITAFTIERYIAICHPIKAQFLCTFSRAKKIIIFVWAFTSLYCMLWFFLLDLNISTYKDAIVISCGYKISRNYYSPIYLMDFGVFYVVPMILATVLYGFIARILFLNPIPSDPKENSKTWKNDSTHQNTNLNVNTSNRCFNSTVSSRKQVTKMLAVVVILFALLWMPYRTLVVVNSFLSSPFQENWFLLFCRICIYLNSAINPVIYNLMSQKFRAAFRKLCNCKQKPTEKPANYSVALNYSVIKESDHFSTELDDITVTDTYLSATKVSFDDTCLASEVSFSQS
Experiment: qHTS assay to identify small molecule agonists of the thyrotropin-releasing hormone receptor (TRHR) signaling pathway (AID 1346891);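 note: HEK293 cells expressing TRHR with calcium dye readout; % is set by controls: 0 for no effect and ±100 for the full control effect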
Settings: TRHR-HEK293 calcium fluorescence, agonist mode; series mostly up to 57.6 µM
Description: National Center for Advancing Translational Sciences [NCATS] NIH Chemical Genomics Center [NCGC] U.S. Environmental Protection Agency [EPA] National Institutes of Environmental Health Sciences [NIEHS] National Toxicology Program [NTP] […] A compound/drug can either activate (agonist) or suppress (antagonist) GPCRs that can be monitored by levels of intracellular calcium. […]
The source made the active and inactive calls. Calls come from the whole dose curve.
Parameter measured: activation

- Compound: "O=C1CCCCC1C1CCCCC1 (configuration not stated)"
  activation: "inactive"
- Compound: "FC(F)(F)c1ccccc1"
  activation: "inactive"
- Compound: "NC1=NCC2c3ccccc3Cc3ccccc3N12 (configuration not stated)"
  activation: "inactive"
- Compound: "O=C(O)c1ccccc1Nc1cc(Cl)ccc1C(=O)O"
  activation: "-0.215% [at 11.8 µM] (inactive)"

Which activation value belongs to CC1=NN(c2cc(Cl)c(S(=O)(=O)O)cc2Cl)C(=O)C1N=Nc1ccc(S(=O)(=O)O)cc1 (configuration not stated) ? inactive

Next up: CC/C=C\CCOC(=O)C(C)C inactive

And what about the compound O=C(O)C(=O)Cc1c[nH]c2ccccc12 ? inactive

# iterate: OC[C@H]1O[C@@H](O[C@H]2[C@H](O)[C@@H](O)[C@H](O)O[C@@H]2CO)[C@H](O)[C@@H](O)[C@H]1O inactive

Okay, and OCCN1CCN(CCO)CC1 ? inactive

Item: NC(=O)NS(=O)(=O)c1ccc(Cl)cc1 inactive

Now try C[C@]12CCC(=O)C=C1CC[C@@H]1[C@@H]2CC[C@@]2(C)[C@H]1CC[C@]2(O)C(=O)CO . inactive

Next up: CS(=O)(=O)c1ccc([C@@H](O)[C@@H](CF)NC(=O)C(Cl)Cl)cc1 inactive

Just for reference, PubChem BioAssay (Tox21) is where these values come from.
